Listing of entries alongside the reported AVG IC50 (pM), TR-FRET assay of Factor D-dependent factor B activation.
# targetDesc: Human complement Factor D, mature (human, UniProt P00746 27-253)
# Sequence (P00746 27-253): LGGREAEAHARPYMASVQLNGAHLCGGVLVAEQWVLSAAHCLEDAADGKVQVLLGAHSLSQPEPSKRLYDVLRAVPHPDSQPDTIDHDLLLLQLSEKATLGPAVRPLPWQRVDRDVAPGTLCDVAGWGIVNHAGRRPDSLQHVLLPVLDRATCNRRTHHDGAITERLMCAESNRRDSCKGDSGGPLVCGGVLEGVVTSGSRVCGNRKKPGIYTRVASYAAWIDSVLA
# assay: cell-based or functional assay
Express your answer as a number followed by its unit.

binder | obsValue
hu20D12.v2.3 Fab (Fab, V domains shown) VH: EVQLVQSGAEVKKPGASVKVSCKASGYTFTSYYMYWVRQAPGQGLEWIGEINPYSGDTNFNEKFKSRATLTVDTSTSTAYLELSSLRSEDTAVYYCAREGGFAYWGQGTLVTVSS VL: DIQMTQSPSSLSASVGDRVTITCKASQNVDTDVAWFQQKPGKAPKGLIRSASSRYSGVPSRFSGSGSGTDFTLTISSLQPEDFATYYCQQYNNYPLTFGQGTKVEIKR | 31.2 pM

Fill in: AVG IC50 (pM), TR-FRET assay of Factor D-dependent factor B activation of hu20D12.v2.3.C + PEG tetramer (Fab, V domains shown, C-terminal Cys linked through maleimide to 40K-tetramer-PEG (Sunbright PTE-400MA)) VH: EVQLVQSGAEVKKPGASVKVSCKASGYTFTSYYMYWVRQAPGQGLEWIGEINPYSGDTNFNEKFKSRATLTVDTSTSTAYLELSSLRSEDTAVYYCAREGGFAYWGQGTLVTVSS VL: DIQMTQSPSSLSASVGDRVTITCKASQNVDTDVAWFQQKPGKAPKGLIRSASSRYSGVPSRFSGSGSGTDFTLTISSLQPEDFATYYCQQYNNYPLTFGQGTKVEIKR is ___
35.2 pM
